Reported Plant response rating, Corn values are given for each entry in this list.
System: corn (Zea mays)
experimental_protocol: Test C greenhouse herbicide test, pre- and postemergence
Type: in vivo
experimental_context: Postemergence, 31 g ai/ha; scale 0 to 100 (0 no effect, 100 complete control)
I only need the number, thanks.

Before answering, review these 3 worked examples.
compound	Plant response rating, Corn
COC(=O)Oc1c(C)nn(C)c(=O)c1-c1ccc(Br)c2ccccc12 [Compound 145]	10
CCC(=O)Oc1c(C)nn(C)c(=O)c1-c1ccc(Br)c2ccccc12 [Compound 134]	5
CCCC(=O)Oc1c(C)nn(C)c(=O)c1-c1c(C)sc2ccc(C)cc12 [Compound 105]	10

Next:
Task: Indicate the recorded Plant response rating, Corn value for this compound: Cc1nn(C)c(=O)c(-c2cccc3ccc(Br)cc23)c1O [Compound 126]
Result: 10

----------
Reported Kochia plant response rating values are given for each entry in this list.
Test system: kochia (Kochia scoparia)
experimental_protocol: Test A greenhouse herbicide test, pre- and postemergence
Type: in vivo
experimental_context: Postemergence, 500 g ai/ha; 0 to 100 scale, 0 is no effect, 100 is complete control
I only need the number, thanks.

Task: Indicate the recorded Kochia plant response rating value for this molecule: Cn1ncc(O)c(-c2ccc(F)c3ccccc23)c1=O
Result: 80

Task: Indicate the recorded Kochia plant response rating value for this molecule: Cc1nn(C)c(=O)c(-c2c(C)sc3ccc(Br)cc23)c1O
Result: 100

Task: Indicate the recorded Kochia plant response rating value for this molecule: Cn1nc(Br)c(O)c(-c2cccc3ccccc23)c1=O
Result: 100

Task: Indicate the recorded Kochia plant response rating value for this molecule: Cc1cc(C)c2ccccc2c1-c1c(O)c(C)nn(C)c1=O
Result: 100

Task: Indicate the recorded Kochia plant response rating value for this molecule: COc1nn(C)c(=O)c(-c2c(C)ccc3ccc(C)cc23)c1O
Result: 80

Task: Indicate the recorded Kochia plant response rating value for this molecule: Cc1nn(C)c(=O)c(-c2ccc(Br)c3ccccc23)c1O
Result: 90

----------
Tested on: galium (catchweed bedstraw, Galium aparine)
experimental_protocol: Test C greenhouse herbicide test, pre- and postemergence
Assay type: in vivo
experimental_context: postemergence, 62 g ai/ha; scale 0 to 100, 0 no effect, 100 complete control
Description: […]
Please use Fulfilled for Galium plant response rating under 90 and Not fulfilled for everything else, ties included.

Task: Lab note: confirm whether the reported Galium plant response rating for this compound is below 90, equality not counting. compound: Cc1ccc2sc(Br)c(-c3c(O)c(C)nn(C)c3=O)c2c1
Result: Not fulfilled

Task: Lab note: confirm whether the reported Galium plant response rating for this compound is below 90, equality not counting. compound: COC(=O)Oc1cnn(C)c(=O)c1-c1c(C)sc2ccccc12
Result: Fulfilled

----------
Reported Plant response rating, Ragweed values are given for each entry in this list.
Tested on: ragweed (common ragweed, Ambrosia elatior)
experimental_protocol: Test C greenhouse herbicide test, pre- and postemergence
Assay type: in vivo
experimental_context: Preemergence, 125 g ai/ha; scale 0 to 100, 0 is no effect, 100 is complete control
I only need the number, thanks.

Before answering, review these 2 worked examples.
molecule	recorded_number
CCC(=O)Oc1c(C)nn(C)c(=O)c1-c1ccc(F)c2ccccc12 [Compound 113]	85
COC(=O)Oc1c(C)nn(C)c(=O)c1-c1ccc(Br)c2ccccc12 [Compound 145]	85

Task: Indicate the recorded Plant response rating, Ragweed value for this molecule: CC(=O)Oc1c(Cl)nn(C)c(=O)c1-c1c(C)sc2ccc(Cl)cc12 [Compound 116]
Result: 95

Task: Indicate the recorded Plant response rating, Ragweed value for this molecule: CCCC(=O)Oc1c(C)nn(C)c(=O)c1-c1c(C)sc2ccc(C)cc12 [Compound 105]
Result: 98

Task: Indicate the recorded Plant response rating, Ragweed value for this molecule: Cc1cc(C)c2ccccc2c1-c1c(O)c(C)nn(C)c1=O [Compound 21]
Result: 100
